Recorded values, source ChEMBL document CHEMBL5365408.

target_under_test: Proprotein convertase subtilisin/kexin type 9 (Homo sapiens, UniProt Q8NBP7)
Sequence (Q8NBP7 31-152 limits assumed): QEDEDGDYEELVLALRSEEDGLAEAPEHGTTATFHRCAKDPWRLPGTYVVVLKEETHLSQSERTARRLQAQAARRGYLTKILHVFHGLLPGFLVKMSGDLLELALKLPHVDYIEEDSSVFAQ
Sequence (Q8NBP7 153-692 limits assumed): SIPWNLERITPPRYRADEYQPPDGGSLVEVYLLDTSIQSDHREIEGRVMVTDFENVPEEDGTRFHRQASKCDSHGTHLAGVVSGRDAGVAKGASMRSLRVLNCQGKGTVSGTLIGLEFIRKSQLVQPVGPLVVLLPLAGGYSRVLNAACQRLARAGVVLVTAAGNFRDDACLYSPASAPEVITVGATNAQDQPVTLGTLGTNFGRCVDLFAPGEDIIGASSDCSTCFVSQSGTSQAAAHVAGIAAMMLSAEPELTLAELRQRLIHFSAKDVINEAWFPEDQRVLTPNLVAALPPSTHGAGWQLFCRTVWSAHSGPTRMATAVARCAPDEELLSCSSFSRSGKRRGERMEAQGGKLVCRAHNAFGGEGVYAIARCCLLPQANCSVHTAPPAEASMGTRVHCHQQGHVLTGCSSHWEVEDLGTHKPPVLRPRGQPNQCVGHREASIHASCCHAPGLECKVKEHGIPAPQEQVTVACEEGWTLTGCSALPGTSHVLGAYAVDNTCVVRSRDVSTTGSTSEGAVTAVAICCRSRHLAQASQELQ
measurement_protocol: Inhibition of full length human PCSK9 expressed in human Huh-7 cells by ELISA analysis
pIC50: −log10 of the molar value.
A collection of molecules and their measured pIC50

Would you please look over these solved cases?
# molecule, pIC50
records = [
    ("CC(=O)NC[C@H]1CNC[C@H](N(C(=O)c2ccc(-n3nnc4cccnc43)cc2)c2ncccc2Cl)C1 (racemic)", "< 4.70"),
    ("NC(=O)NC[C@H]1CNC[C@H](N(C(=O)c2ccc(-n3nnc4cccnc43)cc2)c2ncccc2Cl)C1 (racemic)", "< 4.70"),
]

Problem: Output pIC50 of O=C(c1ccc(-c2cnn3cccnc23)cc1)N(c1ncccc1F)[C@@H]1CCCNC1
Result: < 4.70
